Study system: HTRA2, O43464
Sequence (O43464 355-458): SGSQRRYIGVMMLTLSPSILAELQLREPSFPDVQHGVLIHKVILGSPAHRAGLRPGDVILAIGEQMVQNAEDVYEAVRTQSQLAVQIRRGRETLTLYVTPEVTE
Assay remarks: holdup assay
Design: key: below the threshold = too weak to quantify, mostly under pKd 3.1 to 4
Test parameters: plain residues with an end cap or a label only (N-terminal biotin on a linker: ado-ado)

[
  {
    "Binder": "KPGKGSETVV [FZD4, Q9ULV1]",
    "pKd": "below the threshold"
  },
  {
    "Binder": "ARSAAASNYV [CLDN4, O14493]",
    "pKd": "below the threshold"
  },
  {
    "Binder": "DFLSTFHIRI [CIB2, O75838]",
    "pKd": 3.5
  },
  {
    "Binder": "EDGESWEYQI [TRPV6, Q9H1D0]",
    "pKd": "below the threshold"
  },
  {
    "Binder": "NTLNRKTTPV [CACNG8, Q8WXS5]",
    "pKd": "below the threshold"
  },
  {
    "Binder": "RDPPAEWTRV [PTPN18, Q99952]",
    "pKd": "below the threshold"
  },
  {
    "Binder": "STKRKLASAV [NCF1, P14598]",
    "pKd": "below the threshold"
  },
  {
    "Binder": "KKMLQRRTLL [OR8G1, Q15617]",
    "pKd": "below the threshold"
  },
  {
    "Binder": "NISYRRESAI [KCNJ4, P48050]",
    "pKd": "below the threshold"
  },
  {
    "Binder": "PSHPRLQTHV [KIRREL2, Q6UWL6]",
    "pKd": "below the threshold"
  },
  {
    "Binder": "DGVNEKVSCV [HTR2A, P28223]",
    "pKd": "below the threshold"
  },
  {
    "Binder": "QSGLYESEEL [MYOT, Q9UBF9]",
    "pKd": "below the threshold"
  },
  {
    "Binder": "APIAGFSSFV [SDK2, Q58EX2]",
    "pKd": 4.07
  },
  {
    "Binder": "MHIQEKGFHV [EPHA6, Q9UF33]",
    "pKd": "below the threshold"
  },
  {
    "Binder": "AEASVACSLC [PTGIR, P43119]",
    "pKd": 3.78
  },
  {
    "Binder": "IDESKKEWLI [CNTNAP2, Q9UHC6]",
    "pKd": 3.49
  }
]
